These entries and their values trace back to ChEMBL document CHEMBL1135845.

Experiment: Inhibition of VLA-4 binding to radiolabeled vascular cell adhesion molecule-1 (VCAM-1) Ig fusion protein in human Jurkat cells
Assay type: cell-based
Provide the reported IC50 of each item.
One number for each entry, in nM.

For orientation, consider the following solved cases.
Please fill in: IC50 reported for `COc1ccccc1-c1ccc(C[C@H](NC(=O)C2(c3cnc4ccccc4c3)CCCC2)C(=O)O)cc1` = 3.9

Just so you know, measured IC50 for `COc1ccccc1-c1ccc(C[C@H](NC(=O)C2(c3cccnc3)CCN(C)CC2)C(=O)O)cc1` came out at 1

Quick note, IC50 for `COc1ccccc1-c1ccc(C[C@H](NC(=O)Cc2ccc(F)cc2)C(=O)O)cc1` landed at 129

Entry `COc1ccccc1-c1ccc(C[C@H](NC(=O)Cn2cnc(Cl)c2Cl)C(=O)O)cc1` , IC50 reported as 6.15

Reported IC50 of `COc1ccccc1-c1ccc(C[C@H](NC(=O)Cc2ccc(Cl)cc2Cl)C(=O)O)cc1` : 16.6

IC50 measured on `COc1ccccc1-c1ccc(C[C@H](NC(=O)C2(c3ccc(C)nc3)CCCC2)C(=O)O)cc1` = 1.3

Batch request: IC50 for each of the following molecules.
1. COc1ccccc1-c1ccc(C[C@H](NC(=O)C2(c3cccnc3)CCCCC2)C(=O)O)cc1
2. COc1ccccc1-c1ccc(C[C@H](NC(=O)Cn2cnnn2)C(=O)O)cc1
3. COc1ccccc1-c1ccc(C[C@H](NC(=O)C2(c3cccnc3)CCN(C(C)=O)CC2)C(=O)O)cc1
4. COc1ccccc1-c1ccc(C[C@H](NC(=O)Cc2cccc(C)c2)C(=O)O)cc1
5. COc1ccccc1-c1ccc(C[C@H](NC(=O)C2(c3ccccc3)CCCC2)C(=O)O)cc1
6. COc1ccccc1-c1ccc(C[C@H](NC(=O)C2(c3cccnc3)CC=CC2)C(=O)O)cc1
7. COc1ccccc1-c1ccc(C[C@H](NC(=O)Cc2ccccn2)C(=O)O)cc1
8. COc1ccccc1-c1ccc(C[C@H](NC(=O)Cc2ccccc2[N+](=O)[O-])C(=O)O)cc1

[A]
[1.4, 14.4, 0.7, 30.9, 3.2, 0.9, 15.8, 4.8]

Look at each molecule and report its IC50.
1. COc1ccccc1-c1ccc(C[C@H](NC(=O)Cc2cccc(Cl)c2)C(=O)O)cc1
2. COc1ccccc1-c1ccc(C[C@H](NC(=O)Cc2c(Cl)cccc2Cl)C(=O)O)cc1

[A]
[328, 8]

Batch request: IC50 for each of the following molecules.
1. COc1ccccc1-c1ccc(C[C@H](NC(=O)Cc2ccc3ccccc3c2)C(=O)O)cc1
2. COc1ccccc1-c1ccc(C[C@H](NC(=O)C2(c3ccc[n+]([O-])c3)CCCC2)C(=O)O)cc1
3. COc1ccccc1-c1ccc(C[C@H](NC(=O)C2(c3cncc(Br)c3)CCCC2)C(=O)O)cc1
4. COc1ccccc1-c1ccc(C[C@H](NC(=O)C2(c3ccccc3)CC2)C(=O)O)cc1

[A]
1: 801; 2: 3.2; 3: 1.6; 4: 90.7

----------
Assay: Inhibition of VLA-4 binding to radiolabeled vascular cell adhesion molecule-1 (VCAM-1) Ig fusion protein in human Jurkat cells
Assay type: cell-based
# label = met if IC50 < 10 nM else not met

[Q] Does `COc1ccccc1-c1ccc(C[C@H](NC(=O)Cc2ccccc2)C(=O)O)cc1` have IC50 strictly under 10 nM?
[A] not met

[Q] For `COc1ccccc1-c1ccc(C[C@H](NC(=O)C2(c3ccncc3)CCCC2)C(=O)O)cc1` , is the recorded IC50 below the cut-off of 10 nM?
[A] met

[Q] Does the reported IC50 of the following compound sit strictly below 10 nM? `COc1ccccc1-c1ccc(C[C@H](NC(=O)Cc2cccc([N+](=O)[O-])c2)C(=O)O)cc1`
[A] not met

[Q] Given `COc1ccccc1-c1ccc(C[C@H](NC(=O)Cc2cccnc2)C(=O)O)cc1` , is recorded IC50 strictly lower than 10 nM?
[A] not met

[Q] In the record for `COc1cc(C2(C(=O)N[C@@H](Cc3ccc(-c4ccccc4OC)cc3)C(=O)O)CCCC2)ccn1` , is IC50 less than 10 nM?
[A] met

[Q] Regarding `COc1ccccc1-c1ccc(C[C@H](NC(=O)Cc2cccc(F)c2)C(=O)O)cc1` , kindly confirm whether its IC50 is beneath 10 nM.
[A] not met

[Q] Strictly below 10 nM: is that where IC50 of `COc1ccccc1-c1ccc(C[C@H](NC(C)=O)C(=O)O)cc1` sits?
[A] not met

[Q] Determine if `COc1ccccc1-c1ccc(C[C@H](NC(=O)C2(c3cccnc3)CCOCC2)C(=O)O)cc1` shows IC50 strictly lower than 10 nM.
[A] met

[Q] Is IC50 strictly under 10 nM for the entry `COc1ccccc1-c1ccc(C[C@H](NC(=O)C2(c3cccnc3)CCNCC2)C(=O)O)cc1` ?
[A] met

[Q] Answer whether the compound `COc1ccccc1-c1ccc(C[C@H](NC(=O)C2(c3ccccn3)CCCC2)C(=O)O)cc1` has IC50 strictly less than 10 nM
[A] met

[Q] IC50 under 10 nM? Item: `COc1ccccc1-c1ccc(C[C@H](NC(=O)C(C)(C)c2ccccc2)C(=O)O)cc1`
[A] not met

[Q] Just wondering, is IC50 of `COc1ccccc1-c1ccc(C[C@H](NC(=O)Cc2ccc([N+](=O)[O-])cc2)C(=O)O)cc1` below 10 nM?
[A] not met

[Q] Record `COc1ccccc1-c1ccc(C[C@H](NC(=O)C2(c3cccnc3C)CCCC2)C(=O)O)cc1` : is its IC50 strictly below 10 nM?
[A] met

[Q] In plain terms, does `COc1ccccc1-c1ccc(C[C@H](NC(=O)C2(c3ccc(=O)n(C)c3)CCCC2)C(=O)O)cc1` come in under 10 nM for IC50?
[A] met

[Q] Does `COc1ccccc1-c1ccc(C[C@H](NC(=O)C2(c3ccc(O)nc3)CCCC2)C(=O)O)cc1` have IC50 strictly under 10 nM?
[A] met

[Q] Bench note: check whether COc1ccccc1-c1ccc(C[C@H](NC(=O)C2(c3cccnc3)CCC(C)C2)C(=O)O)cc1 (mixture of isomers) shows IC50 below 10 nM
[A] met

[Q] Record `COc1ccccc1-c1ccc(C[C@H](NC(=O)C2(c3ccnnc3)CCCC2)C(=O)O)cc1` : is its IC50 strictly below 10 nM?
[A] met
